method summary: Toxicity in ip dosed albino mouse by rotarod test
Type: organism-based
protocol conditions: in vivo
measured parameter: TD50 (mg/kg)

> print(dat)
                                   compound  scale.unit  assay.value
1  C[C@H](NCc1ccc(OCc2cccc(F)c2)cc1)C(N)=O [SAFINAMIDE]       mg/kg          630
2  CC(=O)NC(C(=O)NCc1ccccc1)c1ccco1 (racemic)       mg/kg           40
3  C[C@@H](NCc1ccc(OCc2cccc(F)c2)cc1)C(N)=O       mg/kg          580
